# Protocol details: Inhibition of Saccharomyces cerevisiae alpha-glucosidase using p-nitrophenyl-alpha-D-glucopyranoside as substrate preincubated for 15 mins followed by substrate addition measured after 30 mins by spectrophotometric method
pIC50: −log10 of the molar value.
Measured pIC50, listed per entry for reference.
Measured metric: pIC50

1) O=C(CSc1nnc(-c2ccccc2)c(-c2ccccc2)n1)Nc1ccc(Cl)cc1
4.85
2) Cc1cccc(NC(=O)CSc2nnc(-c3ccccc3)c(-c3ccccc3)n2)c1
4.37
3) COc1ccc(NC(=O)CSc2nnc(-c3ccccc3)c(-c3ccccc3)n2)cc1
4.31
4) O=C(CSc1nnc(-c2ccccc2)c(-c2ccccc2)n1)Nc1ccccc1
4.15
5) O=C(CSc1nnc(-c2ccccc2)c(-c2ccccc2)n1)Nc1cc(Cl)ccc1Cl
4.55
6) O=C(CSc1nnc(-c2ccccc2)c(-c2ccccc2)n1)Nc1ccc(C(F)(F)F)cc1
4.46
7) O=C(CSc1nnc(-c2ccccc2)c(-c2ccccc2)n1)Nc1ccc(Oc2ccccc2)cc1
4.60
8) Cc1ccc(NC(=O)CSc2nnc(-c3ccccc3)c(-c3ccccc3)n2)c([N+](=O)[O-])c1
4.34
9) CCOc1ccccc1NC(=O)CSc1nnc(-c2ccccc2)c(-c2ccccc2)n1
4.80
10) O=C(CSc1nnc(-c2ccccc2)c(-c2ccccc2)n1)Nc1ccc(F)cc1
4.30
